This collection of values is drawn from the Human Domainome abundance scans (Beltran et al. 2025).

B1: POU domain, class 2, transcription factor 3, residues 186 to 260; numbered along this chain, Q9UKI9 (parent)
chain: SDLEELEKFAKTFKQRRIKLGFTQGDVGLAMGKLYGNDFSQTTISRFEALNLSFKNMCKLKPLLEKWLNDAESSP

- Variants of: B1
- ASSAY_EXPLANATION: abundance fitness (aPCA) (normalised: wild type 0, dead -1); higher = more abundant; growth selection in yeast, the domain comes from the species named
- SETUP_CONDITIONS: Homo sapiens
# abundance fitness values compiled below
# respond with the number and nothing more

Consider the worked cases shown below.
Query :: Given `M57Q` , state its recorded abundance fitness.
Result :: -0.318

Query :: Next variant: `N56T`
Result :: 0.093

Query :: Next variant: `F54Q`
Result :: -0.025

New cases:
Query :: Given `L29R` , state its recorded abundance fitness.
Result :: 0.019

Query :: Next variant: `K66Q`
Result :: -0.036

Query :: Next variant: `E65R`
Result :: -0.197
